The reported numbers originate from paper PMC12416549.

- Assay system: T1, TNFR1 (Homo sapiens, UniProt P19438)
- T1 chain: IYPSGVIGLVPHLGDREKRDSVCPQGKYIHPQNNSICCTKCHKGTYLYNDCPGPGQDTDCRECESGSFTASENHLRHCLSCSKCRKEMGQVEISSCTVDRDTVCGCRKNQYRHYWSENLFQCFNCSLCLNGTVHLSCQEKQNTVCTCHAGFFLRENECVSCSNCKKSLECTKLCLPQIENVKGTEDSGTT
- Method summary: yeast display SC50
Measured attribute: apparent Kd (screen) (nM)

>>> test_result("A106W (designed binder) MTLQELLREEALRRAEAEAFRYALELLAEKFPEQKEYLLDLAEEIESQIRSLSGVDVEDVRKFLDKEWAWVKELLAEHPAELAEVEAARAARLAELRAEVEAKVAW")
0.956
>>> test_result("E36G (designed binder) MTLQELLREEALRRAEAEAFRYALELLAEKFPEQKGYLLDLAEEIESQIRSLSGVDVEDVRKFLDKEWAWVKELLAEHPAELAEVEAARAARLAELRAEVEAKVAA")
0.718
>>> test_result("L27E (designed binder) MTLQELLREEALRRAEAEAFRYALELEAEKFPEQKEYLLDLAEEIESQIRSLSGVDVEDVRKFLDKEWAWVKELLAEHPAELAEVEAARAARLAELRAEVEAKVAA")
0.869
>>> test_result("K103C (designed binder) MTLQELLREEALRRAEAEAFRYALELLAEKFPEQKEYLLDLAEEIESQIRSLSGVDVEDVRKFLDKEWAWVKELLAEHPAELAEVEAARAARLAELRAEVEACVAA")
0.539
